Test system: SEQID-00338 kinase activity (AMP + ATP→ADP)
experimental.protocol: Kinase activity of SEQID-00338 (ADP-Glo Max Assay)
Format: biochemical
measurement.conditions: 7 μg/mL, 30 minute reaction at 30° C.
endpoint.name: AVG percent activity relative to purified wild-type protein (%)

{"columns": ["molecule", "quantitative.result"],
 "data": [
  ["R42K: single amino acid mutant of SEQID-00338, position 42 (protein, listed as Saccharomyces cerevisiae, source: /note=\"strain ATCC 204508 / S288c\") MSSSESIRMVLIGPPGAGKGTQAPNLQERFHAAHLATGDMLKSQIAKGTQLGLEAKKIMDQGGLVSDDIMVNMIKDELTNNPACKNGFILDGFPRTIPQAEKLDQMLKEQGTPLEKAIELKVDDELLVARITGRLIHPASGRSYHKIFNPPKEDMKDDVTGEALVQRSDDNADALKKRLAAYHAQTEPIVDFYKKTGIWAGVDASQPPATVWADILNKLGKD", 2.2],
  ["R42T: single amino acid mutant of SEQID-00338, position 42 (protein, listed as Saccharomyces cerevisiae, source: /note=\"strain ATCC 204508 / S288c\") MSSSESIRMVLIGPPGAGKGTQAPNLQERFHAAHLATGDMLTSQIAKGTQLGLEAKKIMDQGGLVSDDIMVNMIKDELTNNPACKNGFILDGFPRTIPQAEKLDQMLKEQGTPLEKAIELKVDDELLVARITGRLIHPASGRSYHKIFNPPKEDMKDDVTGEALVQRSDDNADALKKRLAAYHAQTEPIVDFYKKTGIWAGVDASQPPATVWADILNKLGKD", 1.9],
  ["D91F: single amino acid mutant of SEQID-00338, magnesium ion binding site position 91 (protein, listed as Saccharomyces cerevisiae, source: /note=\"strain ATCC 204508 / S288c\") MSSSESIRMVLIGPPGAGKGTQAPNLQERFHAAHLATGDMLRSQIAKGTQLGLEAKKIMDQGGLVSDDIMVNMIKDELTNNPACKNGFILFGFPRTIPQAEKLDQMLKEQGTPLEKAIELKVDDELLVARITGRLIHPASGRSYHKIFNPPKEDMKDDVTGEALVQRSDDNADALKKRLAAYHAQTEPIVDFYKKTGIWAGVDASQPPATVWADILNKLGKD", 0.9]
]}

Data origin: patent US20160228506A1
